The reported measurements were obtained from the RNAGym collection of RNA variant scans (doi:10.1073/pnas.2313332121).

B1: TPR 5TU (parent)
chain: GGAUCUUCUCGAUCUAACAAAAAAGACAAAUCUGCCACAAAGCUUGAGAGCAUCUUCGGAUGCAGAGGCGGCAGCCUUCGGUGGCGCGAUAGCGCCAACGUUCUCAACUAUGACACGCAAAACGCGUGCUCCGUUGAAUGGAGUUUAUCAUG

variants of: B1; assay: polymerase ribozyme fitness, log enrichment relative to wild type (log ratio); higher = more active; in vitro selection for triplet polymerase activity
Variants at the floor of the assay were thinned out.
Entry class follows polymerase ribozyme fitness (log ratio): lower segment: < -3; middle segment: ≥ -3 and < -0.9; upper segment: ≥ -0.9

{"alteration": "C96U C125A", "assigned category": "upper segment"}

Okay, next one:
Query: Exercise: read the entry C18G A19U G62C C85U C116A and state which class it falls under.
Reply: middle segment
